These entries and their values trace back to patent US8183243B2.

biological target: MC4R (Homo sapiens); construct: expressed in transfected cells; host or cells: HEK (Human Embryonic Kidney) permanent expression cell line HEK MC4R-Luc, co-expressing CRE-luciferase; assay: MCR agonistic activity (luciferase assay / cAMP accumulation assay) on MC4R; type: cell-based; settings: HEK cell lines expressing MC4R; method A (CRE-luciferase) or B (cAMP accumulation), not said which; read-out: EC50 value, agonistic activity to MC4R (range per group of Examples)
Sequence (P32245 whole entry, species assumed): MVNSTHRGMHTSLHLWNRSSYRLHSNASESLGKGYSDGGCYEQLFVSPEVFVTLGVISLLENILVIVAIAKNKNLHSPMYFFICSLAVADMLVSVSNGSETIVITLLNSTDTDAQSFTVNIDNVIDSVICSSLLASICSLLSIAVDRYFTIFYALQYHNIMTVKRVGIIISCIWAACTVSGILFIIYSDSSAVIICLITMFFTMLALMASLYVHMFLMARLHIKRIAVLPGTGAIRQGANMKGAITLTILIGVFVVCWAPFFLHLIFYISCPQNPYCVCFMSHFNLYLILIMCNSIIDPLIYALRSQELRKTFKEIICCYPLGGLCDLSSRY
pEC50: −log10 of the molar value.
endpoint: pEC50

Query string: For the compound CC(C)N1CCN(C(=O)[C@@H]2C[C@H](N(C(=O)[C@@H]3CCCO3)[C@H]3CC[C@@H](C)CC3)CN2C(=O)[C@@H]2CN(C(C)(C)C)C[C@H]2c2ccc(Cl)cc2)CC1 [Example 23] , what pEC50 is on record?
Result string: 8.00 to 10.00

Query string: What measured pEC50 goes with CN1CCN(C(=O)[C@@H]2C[C@H](N(C(=O)c3ccoc3)[C@H]3CC[C@@H](C)CC3)CN2C(=O)[C@@H]2CN(C(C)(C)C)C[C@H]2c2ccc(F)cc2F)CC1 [Example 24] ?
Result string: 8.00 to 10.00

Query string: Form field: reported pEC50 of CN1CCN(C(=O)[C@@H]2C[C@H](N(C(=O)[C@@H]3CCCO3)C3CCC(F)(F)CC3)CN2C(=O)[C@@H]2CN(C3CCOCC3)C[C@H]2c2ccc(Cl)cc2)CC1 [Example 51]
Result string: 7.00 to 8.00

Query string: Looking for the measured pEC50 of CC(=O)N([C@H]1C[C@H](C(=O)N2CCN(C)CC2)N(C(=O)[C@@H]2CN(C(C)C)C[C@H]2c2ccc(Cl)cc2)C1)[C@H]1CC[C@@H](C)CC1 [Example 62] , can you help?
Result string: 7.00 to 8.00

Query string: Which measured pEC50 value corresponds to CN1CCN(C(=O)[C@@H]2C[C@H](N(C(=O)[C@@H]3CCCO3)C3CCC(C)(C)CC3)CN2C(=O)[C@@H]2CN(C3CCOCC3)C[C@H]2c2ccc(Cl)cc2)CC1 [Example 41] ?
Result string: 8.00 to 10.00

Query string: For the compound shown here, CN1CCN(C(=O)[C@H]2C[C@H](N(C(=O)C(C)(C)CO)[C@H]3CC[C@@H](C)CC3)CN2C(=O)[C@@H]2CN(C(C)(C)C)C[C@H]2c2ccc(Cl)cc2)CC1 [Example 36] , give the reported pEC50.
Result string: 8.00 to 10.00
